Every entry's value here was drawn from patent EP0522504A1.

- Test system: bacteria
- assay.summary: disc diffusion test (method of Bauer et al.), antibacterial potency relative to thienamycin
- Type: cell-based
- protocol.conditions: THM-R P.aeruginosa; ratio to thienamycin (= 1.0) of geometrical average MIC, larger value = higher activity
reported.metric: Relative antibacterial potency to thienamycin

| compound | recorded.value |
| --- | --- |
| C[C@@H](O)[C@H]1C(=O)N2C(C(=O)O)=C(S[C@@H]3CN[C@H](/C=C\CN)C3)[C@H](C)[C@H]12 | 15.2 |
| C[C@@H](O)[C@H]1C(=O)N2C(C(=O)O)=C(S[C@@H]3CN[C@H](/C=C/C(N)=O)C3)[C@H](C)[C@H]12 [BO-2171, reference compound] | 3.28 |
| CNC/C(C)=C\[C@@H]1C[C@H](SC2=C(C(=O)O)N3C(=O)[C@H]([C@@H](C)O)[C@H]3[C@H]2C)CN1.Cl | 13.4 |
| C/C(=C/[C@@H]1C[C@H](SC2=C(C(=O)O)N3C(=O)[C@H]([C@@H](C)O)[C@H]3[C@H]2C)CN1)CN.Cl | 31.3 |
| C[C@@H](O)[C@H]1C(=O)N2C(C(=O)O)=C(SCCN=CN)C[C@H]12 [imipenem, monohydrate, reference compound] | 2.0 |

###

Recorded MIC by entry
- Tested on: bacteria
- assay.summary: in vitro antibacterial activities, agar plate dilution method (MIC)
- Assay type: cell-based
- protocol.conditions: Staphylococcus aureus, 209P / NIHJJC1, 16 h, S. aureus 209P NIHJ JC1; Mueller Hinton agar, inoculum 10⁶ CFU/mℓ, 37°C for 16 hours; read-out: Minimum Inhibitory Concentration(MIC)

| molecule | measured.on | MIC |
| --- | --- | --- |
| C[C@@H](O)[C@H]1C(=O)N2C(C(=O)O)=C(S[C@@H]3CN[C@H](/C=C\CN)C3)[C@H](C)[C@H]12 | bacteria | < 6 ng/mL |
| C[C@@H](O)[C@H]1C(=O)N2C(C(=O)O)=C(S[C@@H]3CN[C@H](/C=C/C(N)=O)C3)[C@H](C)[C@H]12 [BO-2171, reference compound] | bacteria | 25 ng/mL |
| CNC/C(C)=C\[C@@H]1C[C@H](SC2=C(C(=O)O)N3C(=O)[C@H]([C@@H](C)O)[C@H]3[C@H]2C)CN1.Cl | bacteria | < 6 ng/mL |
| C/C(=C/[C@@H]1C[C@H](SC2=C(C(=O)O)N3C(=O)[C@H]([C@@H](C)O)[C@H]3[C@H]2C)CN1)CN.Cl | bacteria | < 6 ng/mL |

###

- Test system: bacteria
- assay.summary: in vitro antibacterial activities, agar plate dilution method (MIC)
- Format: cell-based
- protocol.conditions: Pseudomonas aeruginosa, 16 h, P. aeruginosa MB 5002; Mueller Hinton agar, inoculum 10⁶ CFU/mℓ, 37°C for 16 hours; read-out: Minimum Inhibitory Concentration(MIC)

| molecule | unit.name | MIC |
| --- | --- | --- |
| C[C@@H](O)[C@H]1C(=O)N2C(C(=O)O)=C(S[C@@H]3CN[C@H](/C=C/C(N)=O)C3)[C@H](C)[C@H]12 [BO-2171, reference compound] | µg/mL | 6.25 |
| C[C@@H](O)[C@H]1C(=O)N2C(C(=O)O)=C(S[C@@H]3CN[C@H](/C=C\CN)C3)[C@H](C)[C@H]12 | µg/mL | 0.78 |
| CNC/C(C)=C\[C@@H]1C[C@H](SC2=C(C(=O)O)N3C(=O)[C@H]([C@@H](C)O)[C@H]3[C@H]2C)CN1.Cl | µg/mL | 0.78 |
| C/C(=C/[C@@H]1C[C@H](SC2=C(C(=O)O)N3C(=O)[C@H]([C@@H](C)O)[C@H]3[C@H]2C)CN1)CN.Cl | µg/mL | 0.78 |
